The reported numbers originate from the NIST ThermoML archive (doi:10.1016/j.jct.2013.05.030).

Readings of activity coefficient for the listed molecules
# testMethodNotes: activity coefficient (dimensionless); of the first substance listed, at infinite dilution; xn = mol fraction of the nth substance listed
# protocolConditions: 373.15 K; 101 kPa; Liquid; Chromatography; x1 = 0
// return just the number, without any unit appended

{"molecule": "CCCO [propan-1-ol] + CCCCCCCCCCCCCC[P+](CCCCCC)(CCCCCC)CCCCCC.O=S(=O)([N-]S(=O)(=O)C(F)(F)F)C(F)(F)F", "activity coefficient": 0.953}
{"molecule": "C#CCCCCC [1-heptyne] + CCCCCCCCCCCCCC[P+](CCCCCC)(CCCCCC)CCCCCC.O=S(=O)([N-]S(=O)(=O)C(F)(F)F)C(F)(F)F", "activity coefficient": 0.782}
{"molecule": "C1CCCCC1 [cyclohexane] + CCCCCCCCCCCCCC[P+](CCCCCC)(CCCCCC)CCCCCC.O=S(=O)([N-]S(=O)(=O)C(F)(F)F)C(F)(F)F", "activity coefficient": 0.8}
{"molecule": "C1CCCCCCC1 [cyclooctane] + CCCCCCCCCCCCCC[P+](CCCCCC)(CCCCCC)CCCCCC.O=S(=O)([N-]S(=O)(=O)C(F)(F)F)C(F)(F)F", "activity coefficient": 1.12}
{"molecule": "C1CCCC1 [cyclopentane] + CCCCCCCCCCCCCC[P+](CCCCCC)(CCCCCC)CCCCCC.O=S(=O)([N-]S(=O)(=O)C(F)(F)F)C(F)(F)F", "activity coefficient": 0.721}

Reported activity coefficient ( CO [methanol] + CCCCCCCCCCCCCC[P+](CCCCCC)(CCCCCC)CCCCCC.O=S(=O)([N-]S(=O)(=O)C(F)(F)F)C(F)(F)F ) = 0.863

Reported activity coefficient ( CC(C)=O [acetone] + CCCCCCCCCCCCCC[P+](CCCCCC)(CCCCCC)CCCCCC.O=S(=O)([N-]S(=O)(=O)C(F)(F)F)C(F)(F)F ) = 0.334

Reported activity coefficient ( CCCCCCCCC [nonane] + CCCCCCCCCCCCCC[P+](CCCCCC)(CCCCCC)CCCCCC.O=S(=O)([N-]S(=O)(=O)C(F)(F)F)C(F)(F)F ) = 1.87

Reported activity coefficient ( C#CCCCC [1-hexyne] + CCCCCCCCCCCCCC[P+](CCCCCC)(CCCCCC)CCCCCC.O=S(=O)([N-]S(=O)(=O)C(F)(F)F)C(F)(F)F ) = 0.732
